# target_or_test_system: Class E basic helix-loop-helix protein 22 (Mus musculus, UniProt Q8C6A8)
# Sequence (Q8C6A8 whole entry): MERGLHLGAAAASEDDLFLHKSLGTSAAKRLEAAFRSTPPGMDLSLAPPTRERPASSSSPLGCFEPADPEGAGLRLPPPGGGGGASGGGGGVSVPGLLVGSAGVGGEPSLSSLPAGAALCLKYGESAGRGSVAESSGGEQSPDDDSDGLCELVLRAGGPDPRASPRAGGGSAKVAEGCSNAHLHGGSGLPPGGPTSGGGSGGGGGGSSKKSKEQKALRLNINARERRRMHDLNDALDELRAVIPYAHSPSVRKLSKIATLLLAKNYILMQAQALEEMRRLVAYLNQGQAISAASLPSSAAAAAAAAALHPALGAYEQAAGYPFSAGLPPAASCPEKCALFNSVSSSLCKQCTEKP
observed_property: Ki

What does the data say about its Ki? Entry: H-DVPKSDQFVGLM-NH2 [CAS_45749]
0.5 nM

---

# target_or_test_system: Substance P (Cavia porcellus, UniProt P67932)
observed_property: pKi
Please keep in mind that pKi is minus log10 of the molar concentration; only the number is needed.

What does the data say about its pKi? Entry: H-DVPKSDQFVGLM-NH2 [CAS_45749]
8.05

---

Residues, ends and D or L forms follow the SMILES beside them.
Consider the following compounds; for each one, report its pKi.
Please keep in mind that pKi is minus log10 of the molar concentration; only the number is needed.

Any idea what pKi came out for CSCC[C@H](NC(=O)[C@H](CC(C)C)NC(=O)CNC(=O)[C@H](Cc1ccc(O)cc1)NC(=O)[C@H](Cc1ccccc1)NC(=O)[C@H](CCCCN)NC(=O)[C@H](CC(N)=O)NC(=O)[C@@H]1CCCN1C(=O)[C@H](CC(=O)O)NC(=O)[C@H](C)NC(=O)[C@@H]1CCC(=O)N1)C(N)=O [physalaemin] (HELM PEPTIDE1{[Glp].A.D.P.N.K.F.Y.G.L.M.[am]}$$$$V2.0) on Substance P (Cavia porcellus, UniProt P67932)?
9.15

Any idea what pKi came out for "CSCC[C@H](NC(=O)[C@H](CC(C)C)NC(=O)CNC(=O)[C@H](Cc1ccccc1)NC(=O)[C@H](Cc1ccccc1)NC(=O)[C@H](CCC(N)=O)NC(=O)[C@H](CCC(N)=O)NC(=O)[C@@H]1CCCN1C(=O)[C@H](CCCCN)NC(=O)[C@@H]1CCCN1C(=O)[C@@H](N)CCCN=C(N)N)C(N)=O" on Substance P (Cavia porcellus, UniProt P67932)?
9.70

Any idea what pKi came out for "CSCC[C@H](NC(=O)[C@H](CC(C)C)NC(=O)CNC(=O)[C@@H](NC(=O)[C@H](Cc1ccccc1)NC(=O)[C@H](Cc1ccccc1)NC(=O)[C@H](CC(=O)O)NC(=O)[C@H](Cc1c[nH]cn1)NC(=O)[C@H](CCSC)NC(=O)[C@@H](N)CC(=O)O)C(C)C)C(N)=O" on Substance P (Cavia porcellus, UniProt P67932)?
7.46

Any idea what pKi came out for CC[C@H](C)[C@H](NC(=O)[C@H](Cc1ccccc1)NC(=O)[C@H](C)NC(=O)[C@H](CC(=O)O)NC(=O)[C@H](CCCCN)NC(=O)[C@H](CO)NC(=O)[C@@H]1CCCN1C(=O)[C@@H]1CCC(=O)N1)C(=O)NCC(=O)N[C@@H](CC(C)C)C(=O)N[C@@H](CCSC)C(N)=O (HELM PEPTIDE1{[Glp].P.S.K.D.A.F.I.G.L.M.[am]}$$$$V2.0) on Substance P (Cavia porcellus, UniProt P67932)?
8.05

---

Protein target, amino acids: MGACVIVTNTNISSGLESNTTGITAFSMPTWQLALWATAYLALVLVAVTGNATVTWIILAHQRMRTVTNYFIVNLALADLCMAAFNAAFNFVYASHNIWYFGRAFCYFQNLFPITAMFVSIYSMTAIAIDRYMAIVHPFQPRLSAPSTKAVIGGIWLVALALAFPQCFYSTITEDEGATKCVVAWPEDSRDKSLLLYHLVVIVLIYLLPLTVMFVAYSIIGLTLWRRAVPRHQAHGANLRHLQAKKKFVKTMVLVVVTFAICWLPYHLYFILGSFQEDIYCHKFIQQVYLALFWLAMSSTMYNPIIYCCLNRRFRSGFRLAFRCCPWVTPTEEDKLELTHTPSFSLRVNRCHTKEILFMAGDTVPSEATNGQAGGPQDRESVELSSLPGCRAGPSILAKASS
Residues, ends and D or L forms follow the SMILES beside them.
observed_property: Ki (nM)
// note: answer is a bare numeric in nM

What does the data say about its Ki? Entry: CC[C@H](C)[C@H](NC(=O)[C@H](Cc1ccccc1)NC(=O)[C@H](C)NC(=O)[C@H](CC(=O)O)NC(=O)[C@H](CCCCN)NC(=O)[C@H](CO)NC(=O)[C@@H]1CCCN1C(=O)[C@@H]1CCC(=O)N1)C(=O)NCC(=O)N[C@@H](CC(C)C)C(=O)N[C@@H](CCSC)C(N)=O (HELM PEPTIDE1{[Glp].P.S.K.D.A.F.I.G.L.M.[am]}$$$$V2.0)
15

What does the data say about its Ki? Entry: "CSCC[C@H](NC(=O)[C@H](CC(C)C)NC(=O)CNC(=O)[C@@H](NC(=O)[C@H](Cc1ccccc1)NC(=O)[C@H](Cc1ccccc1)NC(=O)[C@H](CC(=O)O)NC(=O)[C@H](Cc1c[nH]cn1)NC(=O)[C@H](CCSC)NC(=O)[C@@H](N)CC(=O)O)C(C)C)C(N)=O"
200

What does the data say about its Ki? Entry: CSCC[C@H](NC(=O)[C@H](CC(C)C)NC(=O)CNC(=O)[C@H](Cc1ccc(O)cc1)NC(=O)[C@H](Cc1ccccc1)NC(=O)[C@H](CCCCN)NC(=O)[C@H](CC(N)=O)NC(=O)[C@@H]1CCCN1C(=O)[C@H](CC(=O)O)NC(=O)[C@H](C)NC(=O)[C@@H]1CCC(=O)N1)C(N)=O [physalaemin] (HELM PEPTIDE1{[Glp].A.D.P.N.K.F.Y.G.L.M.[am]}$$$$V2.0)
340

What does the data say about its Ki? Entry: "CSCC[C@H](NC(=O)[C@H](CC(C)C)NC(=O)CNC(=O)[C@H](Cc1ccccc1)NC(=O)[C@H](Cc1ccccc1)NC(=O)[C@H](CCC(N)=O)NC(=O)[C@H](CCC(N)=O)NC(=O)[C@@H]1CCCN1C(=O)[C@H](CCCCN)NC(=O)[C@@H]1CCCN1C(=O)[C@@H](N)CCCN=C(N)N)C(N)=O"
200

---

observed_property: Ki (nM)
// note: answer is a bare numeric in nM

Any idea what Ki came out for H-DVPKSDQFVGLM-NH2 [CAS_45749] on Eledoisin (Eledone moschata)?
2.6

Entry source: BindingDB's records for PubMed 2419545
